Test: Partition coefficient (logP)
Type: physicochemical
Conditions: octanol/water
parameter: logP

Cl.O=C(O)C1=CCC(CCC(c2ccccc2)c2ccccc2)NC1 (configuration not stated) :: 0.71
O=C(O)C1CCCN(CCC=C(c2ccccc2)c2ccccc2)C1 (configuration not stated) :: 0.99

====

Assay: Dissociation constant was measured by potentiometric titrations
Type: physicochemical
parameter: pKa2

Cl.O=C(O)C1=CCC(CCC(c2ccccc2)c2ccccc2)NC1 (configuration not stated) :: 9.25
O=C(O)C1CCCN(CCC=C(c2ccccc2)c2ccccc2)C1 (configuration not stated) :: 9.23
